molecular target: ScBzz1-D2; test: SPOT peptide array binding signal intensity (averaged, normalized) (arbitrary units (background-subtracted, floor 0; scale differs between SH3 domains)); higher = stronger binding of the SH3 domain to the peptide
METRIC: SPOT peptide array binding signal intensity
Give only the figure.

Check out these entries, answers already filled in.
# BINDER, QUANTITATIVE_RESULT
measured = [
    ("SLSRRRFSLPSMPNV", 29.5),
    ("PALPSLPPPPLLNVD", 10.5),
    ("LLGRKRPVMERVVDI", 24.5),
]

Please look at the following binder next.
Give the measured SPOT peptide array binding signal intensity of `LKQRFFLMFPKSIIW` .
150
